Cited source: paper PMC12300679

Test system: HuTu 80 human duodenal adenocarcinoma cells
Assay Method Text: MTT cytotoxicity assay, HuTu 80
Assay type: cell-based
Condition Info: HuTu 80 versus normal WI38 cells
Experimental Endpoint: SI (selectivity index) HuTu 80

Molecule	Experimental Target	Recorded Value
O=P(c1ccccc1)(c1ccccc1)C1CCCN1S(=O)(=O)CCNCCS(=O)(=O)O (stereo not shown)	HuTu 80 human duodenal adenocarcinoma cells	1.2
Cl.O=P(c1ccccc1)(c1ccccc1)C1CCCN1S(=O)(=O)CCN1CCCCC1 (stereo not shown)	HuTu 80 human duodenal adenocarcinoma cells	>1
O=c1[nH]cc(F)c(=O)[nH]1 [5-Fluorouracil, reference compound]	HuTu 80 human duodenal adenocarcinoma cells	1
CCN(CC)CCS(=O)(=O)N1CCCC1P(=O)(c1ccccc1)c1ccccc1.Cl (stereo not shown)	HuTu 80 human duodenal adenocarcinoma cells	- ((-)—no selectivity)
Cc1c(C2CCCN2S(=O)(=O)CCNCC(=O)O)c(=O)n(-c2ccccc2)n1C (stereo not shown)	HuTu 80 human duodenal adenocarcinoma cells	>1.1
O=C1CCN(c2ccccc2)N1C1CCCN1S(=O)(=O)CCN1CCCCC1 (stereo not shown)	HuTu 80 human duodenal adenocarcinoma cells	- ((-)—no selectivity)
Cl.O=P(c1ccccc1)(c1ccccc1)C1CCCN1S(=O)(=O)CCN1CCOCC1 (stereo not shown)	HuTu 80 human duodenal adenocarcinoma cells	- ((-)—no selectivity)
Nc1ncnc2c1ncn2CCS(=O)(=O)N1CCCC1N1C(=O)CCN1c1ccccc1 (stereo not shown)	HuTu 80 human duodenal adenocarcinoma cells	- ((-)—no selectivity)

Please fill in: SI (selectivity index) HuTu 80 reported for O=C(O)c1cn(C2CC2)c2cc(N3CCN(CCS(=O)(=O)N4CCCC4P(=O)(c4ccccc4)c4ccccc4)CC3)c(F)cc2c1=O (stereo not shown) = 1.9

Please fill in: SI (selectivity index) HuTu 80 reported for CCCCN(CCCC)CCS(=O)(=O)N1CCCC1P(=O)(c1ccccc1)c1ccccc1.Cl (stereo not shown) = - ((-)—no selectivity)

----------
System: RPMI 1788 human healthy donor peripheral blood leukocytes
Assay Method Text: MTT cytotoxicity assay, normal RPMI 1788 cells
Format: cell-based
Condition Info: tested at 1–200 µM, three independent experiments, read-out: IC50 RPMI 1788 (normal cell line)
Experimental Endpoint: pIC50
Just so you know, pIC50 here is -log10 of the concentration in molar units; reply with that number alone.

Compound	Experimental Target	pIC50
COc1cccc2c1C(=O)c1c(O)c3c(c(O)c1C2=O)C[C@@](O)(C(=O)CO)C[C@@H]3O[C@H]1C[C@H](N)[C@H](O)[C@H](C)O1 [Doxorubicin, reference compound]	RPMI 1788 human healthy donor peripheral blood leukocytes	5.48

Here is the next item to consider.
Please fill in: pIC50 reported for CCCCN(CCCC)CCS(=O)(=O)N1CCCC1P(=O)(c1ccccc1)c1ccccc1.Cl (stereo not shown) [Compound 4p] = 3.75
